assay: antimalarial activity against Dd2 strain (AID 2302);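 further: 0% = DMSO untreated growth and 100% = chloroquine plus artemisinin killed control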; conditions: P. falciparum Dd2 in RBCs, LDH growth readout, 72 h; at 2 µM; hits give high values
Recorded measurements of growth inhibition, one per entry
Output spec: scalar in %, unitless text.

Examples with their reported growth inhibition follow.
Query block: Supply reported growth inhibition belonging to this molecule: O=C(O[C@@H]1CN[C@H](C#Cc2cc3ncnc(Nc4ccc5c(cnn5Cc5cccc(F)c5)c4)c3s2)C1)N1CCCC1
Result block: 56

Query block: Supply reported growth inhibition belonging to this molecule: CC1CCCCN1CCCNC(=O)c1cccc(-c2cc3cc(Cl)c(Cl)cc3[nH]2)c1 (centres undefined)
Result block: 7

Query block: Supply reported growth inhibition belonging to this molecule: Cc1noc(-c2ccc3c(c2)CCN(CCC2CCC(NC(=O)/C=C/c4cccc(Cl)c4)CC2)CC3)n1 (centres undefined)
Result block: 24

Query block: Supply reported growth inhibition belonging to this molecule: Cc1cc(-c2ccc(Cl)cc2)c2c(N)c(C(=O)Nc3ccc(F)cc3)sc2n1
Result block: 87

Query block: Supply reported growth inhibition belonging to this molecule: COc1ccc2nccc([C@@H](O)CN3CCC(NC(=O)c4cc5c(F)cc(F)cc5[nH]4)CC3)c2n1
Result block: 74

Query block: Supply reported growth inhibition belonging to this molecule: CS(=O)(=O)c1ccc2c(c1)CCN(CCC1CCC(NC(=O)c3cc4cccc(Br)c4[nH]3)CC1)CC2 (centres undefined)
Result block: 7

Query block: Supply reported growth inhibition belonging to this molecule: O=C(NCc1cccc(C(F)(F)F)c1)c1ccc(CNC(=O)c2ccc(O)c(-c3ccc(Cl)c(Cl)c3)c2)cc1
Result block: 15

Query block: Supply reported growth inhibition belonging to this molecule: Cc1[nH]c(C)c(-c2ccc(-c3ccc(F)cc3)nc2)c(=O)c1Br
Result block: 96

Continue with the molecule presented below.
Query block: Supply reported growth inhibition belonging to this molecule: Clc1ccc2c(NN=Cc3cccs3)ccnc2c1
Result block: 96

----------
test: human hepatoma cell viability loss – ATP luminescence, cytotoxicity control for P. falciparum antimalarial project, primary screen (AID 2303); conditions: HepG2 viability, 24-48 h, at 10 µM, hits give high values;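 further: 0% = DMSO wells and 100% = digitonin-killed cells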
property: inhibition (%)
Output spec: scalar in %, unitless text.

Query block: Supply reported inhibition belonging to this compound: Fc1ccc2nccc(NN=CC=Cc3ccccc3)c2c1
Result block: 29

Query block: Supply reported inhibition belonging to this compound: N#CC(c1cccc(Cl)c1)c1ccc2c(C(F)(F)F)cc(C(F)(F)F)nc2n1 (stereo not given)
Result block: 52

Query block: Supply reported inhibition belonging to this compound: CCC[C@@H]([C@@H](CC1CCCCC1)C(=O)N[C@H](C(=O)Nc1nccs1)C(C)(C)SC)N(O)C=O
Result block: 51

Query block: Supply reported inhibition belonging to this compound: COCCN1CCC(N(Cc2ccc(-c3ccc(OC(F)(F)F)cc3)cc2)C(=O)Cn2c(CCc3cccc(F)c3F)cc(=O)c3ccccc32)CC1
Result block: 100

Continue with the compound presented below.
Query block: Supply reported inhibition belonging to this compound: CN(CCCN(C)c1cc(NC(=O)c2ccc(F)cc2)ccn1)Cc1cccc(O)c1
Result block: 2

----------
biological target: Calcium-dependent protein kinase 4 (Plasmodium falciparum (isolate 3D7)) (UniProt Q8IBS5); assay: PfCDPK4 kinase inhibitors, biochemical, TCAMS library (AID 1159588); conditions: recombinant PfCDPK4, Kinase-Glo ATP depletion luminescence
Sequence (Q8IBS5 whole entry, looked up): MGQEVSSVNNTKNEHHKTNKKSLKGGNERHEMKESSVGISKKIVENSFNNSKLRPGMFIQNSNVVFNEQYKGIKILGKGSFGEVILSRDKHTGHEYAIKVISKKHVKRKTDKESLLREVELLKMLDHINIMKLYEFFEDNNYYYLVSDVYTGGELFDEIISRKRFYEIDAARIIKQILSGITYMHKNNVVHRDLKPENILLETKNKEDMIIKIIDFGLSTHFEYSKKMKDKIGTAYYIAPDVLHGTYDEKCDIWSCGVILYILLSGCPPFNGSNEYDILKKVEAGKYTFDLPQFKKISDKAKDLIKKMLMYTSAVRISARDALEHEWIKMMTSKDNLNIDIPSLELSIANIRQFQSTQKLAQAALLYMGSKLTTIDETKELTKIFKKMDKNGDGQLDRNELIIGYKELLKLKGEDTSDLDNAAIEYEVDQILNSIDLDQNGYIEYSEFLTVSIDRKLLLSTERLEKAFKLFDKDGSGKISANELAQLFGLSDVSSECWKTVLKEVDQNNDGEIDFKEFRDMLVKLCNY
Potency and affinity values are given separately. Calls of active or inactive are those of the source. No cut-off is given here; in the data, nearly all actives have IC50 up to about 0.91 µM.
property: outcome

Examples with their reported outcome follow.
Query block: Supply reported outcome belonging to this compound: O=S(=O)(Nc1ccc2nccc(N3CCNCC3)c2c1)c1ccc(-c2ccccc2)cc1
Result block: inactive

Query block: Supply reported outcome belonging to this compound: c1ccc(C2=NN=C(c3ccccn3)[C@H]3[C@H]4C[C@@H]([C@@H]23)[C@@H]2[C@H]4[C@H]3C[C@@H]2c2ccccc23)nc1
Result block: inactive

Query block: Supply reported outcome belonging to this compound: CN(C)Cc1cccc(CNC(=O)c2sccc2OCc2ccc(Cl)cc2)c1
Result block: inactive

Query block: Supply reported outcome belonging to this compound: O=C(/C=C/c1ccc(-c2nc3ccc(Cl)cc3[nH]2)cc1)NC1CCN(Cc2ccccc2)CC1
Result block: inactive

Continuing:
Query block: Supply reported outcome belonging to this compound: CCN(CC)c1nc(-c2ccccc2)cc(-c2ccccc2)c1C#N
Result block: inactive

Query block: Supply reported outcome belonging to this compound: Cc1noc(C)c1-c1cccc(CNCc2cccc(-c3ccc(-c4nc5ccccc5[nH]4)cc3)c2)c1
Result block: inactive

----------
assay: antimalarial activity against Dd2 strain (AID 2302);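 further: 0% = DMSO untreated growth and 100% = chloroquine plus artemisinin killed control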; details: P. falciparum Dd2 in RBCs, LDH growth readout, 72 h; at 2 µM
The source made the active and inactive calls.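 Rule for the calls: active = growth inhibition above 50% at the single 2 µM test dose, taken to imply half-maximal potency below 2 µM; inactive = the rest.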
Choose one outcome from this list and give only that: TRUE (active), FALSE (inactive)

Take a look at these entries with their results.
Query block: I'd appreciate the recorded outcome for COC(=O)c1cccc(CNCc2cccc(-c3ccc(-c4nc5ccccc5[nH]4)s3)c2)c1 from this test.
Result block: TRUE

Query block: I'd appreciate the recorded outcome for CC(Oc1c(C2CCN(CCCCNC(=O)c3ccc(-c4ccc(Cl)cc4)cc3)CC2)ccc2c1CCCC2)C(N)=O (stereo not given) from this test.
Result block: FALSE

Query block: I'd appreciate the recorded outcome for CN=C(N)c1ccc(NC(=O)c2ccc(C(=O)Nc3ccc(C(N)=NC)cc3)cc2)cc1 from this test.
Result block: TRUE

Query block: I'd appreciate the recorded outcome for Cc1cc(C)c(C)c(OCCCON2C(N)=NC(N)=NC2(C)C)c1C from this test.
Result block: TRUE

Query block: I'd appreciate the recorded outcome for O=C(CCNc1ccnc(NCC2CCCCC2)n1)Nc1ccccc1 from this test.
Result block: FALSE

Query block: I'd appreciate the recorded outcome for CNS(=O)(=O)c1ccc2c(c1)nc(C1CCN(CC3CCC(NC(=O)/C=C/c4ccc(Cl)c(Cl)c4)CC3)CC1)n2C (stereo not given) from this test.
Result block: TRUE

Query block: I'd appreciate the recorded outcome for CCCC1N=C(N)N=C(N)N1c1ccc(OC)cc1 (stereo not given) from this test.
Result block: FALSE

Query block: I'd appreciate the recorded outcome for Cc1cc(C(=O)Nc2ccc3c(c2)CCN3C2CCN(Cc3csc4ccccc34)C2)no1 (stereo not given) from this test.
Result block: TRUE

Continuing:
Query block: I'd appreciate the recorded outcome for C[C@@H](CC1CCCCC1)OC(=O)N[C@H]1CCN(C#N)C1 from this test.
Result block: TRUE

Query block: I'd appreciate the recorded outcome for O=C1CCCN1CCCNCc1ccc(-c2cccc(-c3nc4ccccc4[nH]3)c2)cc1 from this test.
Result block: FALSE

Query block: I'd appreciate the recorded outcome for Cc1noc(-c2cccs2)c1C(=O)NCCc1cccc(Cl)c1 from this test.
Result block: TRUE

----------
test: human hepatoma cell viability loss – ATP luminescence, cytotoxicity control for P. falciparum antimalarial project, primary screen (AID 2303); settings: HepG2 viability, 24-48 h, at 10 µM, hits give high values;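 further: 0% = DMSO wells and 100% = digitonin-killed cells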
property: inhibition (%)
Output spec: scalar in %, unitless text.

Examples with their reported inhibition follow.
Query block: Supply reported inhibition belonging to this molecule: COc1ccc2c(NN=Cc3cccc(Cl)c3)cc(C)nc2c1
Result block: 3

Query block: Supply reported inhibition belonging to this molecule: O=C(Nc1nc2cc(S(=O)(=O)NCCc3cccc(F)c3)ccc2n1CCCn1ccnc1)c1ccc(Cl)cc1
Result block: -24

Query block: Supply reported inhibition belonging to this molecule: c1ccc(-c2cc(NCCNc3cc(-c4ccccc4)nc4ccccc34)c3ccccc3n2)cc1
Result block: -2

Query block: Supply reported inhibition belonging to this molecule: O=C(Nc1ccc(CN2CCOCC2)cc1)c1ccc(-c2ccc(Cl)cc2)o1
Result block: 22

Query block: Supply reported inhibition belonging to this molecule: COc1c(Br)cc(Br)cc1-c1ccc(CN2C3CCCC2CCC3)[nH]1
Result block: 42

Query block: Supply reported inhibition belonging to this molecule: COc1ccc2ccccc2c1CCCCN1CCN(CC(c2ccc(F)cc2)N2CCC2)CC1 (stereo not given)
Result block: 51

Query block: Supply reported inhibition belonging to this molecule: Cc1ccc(NC(=O)c2c(C)noc2-c2snnc2C)cc1
Result block: 1

Query block: Supply reported inhibition belonging to this molecule: O=C(CCC1CCCCC1)NCCNc1cccc2ccccc12
Result block: 7

Query block: Supply reported inhibition belonging to this molecule: Nc1nc(N)c2c(ccc3nn(S(=O)(=O)N4CCCC4)cc32)n1
Result block: 69

Query block: Supply reported inhibition belonging to this molecule: Cc1ccccc1C1CCN(C2CCC(NC(=O)/C=C/c3c(F)ccc(F)c3F)CC2)CC1 (stereo not given)
Result block: 37

Continuing:
Query block: Supply reported inhibition belonging to this molecule: CN1CCN(Cc2cccc(-c3ccc4c(Nc5ccc(Oc6ccccc6)cc5)ccnc4c3)c2)CC1
Result block: 41

Query block: Supply reported inhibition belonging to this molecule: CN(c1ccccc1C(=O)Nc1ccccc1Oc1ccccc1)S(=O)(=O)c1ccccc1
Result block: 2

Query block: Supply reported inhibition belonging to this molecule: Cn1cncc1C(=O)Nc1cccc(-c2cccc(-c3nc4ccccc4[nH]3)c2)c1
Result block: 9

Query block: Supply reported inhibition belonging to this molecule: CN1CCN(c2ccc3nc(-c4ccc5nc(-c6ccc(O)cc6)[nH]c5c4)[nH]c3c2)CC1
Result block: -11

Query block: Supply reported inhibition belonging to this molecule: COc1cc(NC(=O)NC(CCN2CCC3(CCc4ccccc43)CC2)c2ccc(Cl)c(Cl)c2)cc(OC)c1OC (stereo not given)
Result block: 66

Query block: Supply reported inhibition belonging to this molecule: CCCCN(CCCC)CC(O)c1cc(-c2ccc(Cl)cc2)nc2c(Cl)cc(Cl)cc12 (stereo not given)
Result block: -12

Query block: Supply reported inhibition belonging to this molecule: Clc1ccc2c(NN=Cc3cccs3)ccnc2c1
Result block: -4

Query block: Supply reported inhibition belonging to this molecule: O=C(/C=C/c1ccc(Cl)c(Cl)c1)NCC[C@@H]1C[C@H]1CCN1CCC(c2c[nH]c3ccccc23)CC1
Result block: 98

Query block: Supply reported inhibition belonging to this molecule: CC(C)N1CCC(N(Cc2ccc(-c3ccc(C(F)(F)F)cc3)cc2)C(=O)Cn2c(CCc3cccc(F)c3F)cc(=O)c3cn(C)nc32)CC1
Result block: 100

Query block: Supply reported inhibition belonging to this molecule: O=C(NCC1CC1)C1CCN(C(c2ccc(Cl)cc2)c2ccc(Cl)cc2)CC1
Result block: 3
